// data source = patent US11802107B2

// reported inhibition at 30 pM for each item listed
Test system: IL-17
Experiment notes: P. acnes-induced IL-17 protein on human PBMCs (ELISA)
Format: cell-based
Condition label: PBMC, PBMCs + live P. acnes 1:1, test material 30 PM, 24 hours
Give just the number in %; leave the unit off.

# example entries with known answers
Query (molecule): C/C(=C\CSCC(NC(=O)NCC(=O)O)C(=O)O)CCCC(C)CCCC(C)CCCC(C)C (stereo not shown) ; field requested: inhibition at 30 pM
32

Now this one: O=C(OOC(=O)c1ccccc1)c1ccccc1 [Benzoyl Peroxide, reference compound]
15

Now this one: O=C(O)CCCCCCCC(=O)O [Azelaic Acid, reference compound]
0

Now this one: C/C(=C\CSCC(NC(=O)N(CC(=O)O)CC(=O)O)C(=O)O)CCCC(C)CCCC(C)CCCC(C)C (stereo not shown)
29

Now this one: C/C(=C\CSC[C@H](NC(=O)N(C)CC(=O)O)C(=O)O)CCCC(C)CCCC(C)CCCC(C)C (stereo partly shown)
0

Now this one: C/C(=C\CSC[C@H](NC(=O)N1CCC[C@H]1C(=O)O)C(=O)O)CCCC(C)CCCC(C)CCCC(C)C (stereo partly shown)
23

Please look at the following molecule next.
Query (molecule): O=C(O)c1ccccc1O [Salicylic Acid, reference compound] ; field requested: inhibition at 30 pM
0

====

Tested on: IL17A (IL-17A)
Experiment notes: P. acnes-induced IL-17 gene on human PBMCs (qPCR)
Format: cell-based
Condition label: PBMC, PBMCs + live P. acnes 1:1, test material 30 PM, 24 hours
Readout type: inhibition at 30 pM (%)
Give just the number in %; leave the unit off.

# example entries with known answers
Query (compound): C/C(=C\CSC[C@H](NC(=O)COCC(=O)O)C(=O)O)CCCC(C)CCCC(C)CCCC(C)C (stereo partly drawn) ; field requested: inhibition at 30 pM
0

Now this one: C/C(=C\CSCC(NC(=O)c1cc(O)c(O)c(O)c1)C(=O)O)CCCC(C)CCCC(C)CCCC(C)C (stereo not drawn)
0

Others:
Query (compound): C/C(=C\CSC[C@H](NC(=O)N(C)CC(=O)O)C(=O)O)CCCC(C)CCCC(C)CCCC(C)C (stereo partly drawn) ; field requested: inhibition at 30 pM
0

====

// reported hCAP18 gene expression for each item listed
Test system: HCAP18
Experiment notes: NHEK antimicrobial peptide gene expression, hCAP18
Type: cell-based, human
Condition label: 10 μM, 24 hours, qPCR, normalized to GAPDH
Description: Normal human epidermal keratinocytes (NHEKs) from neonatal donors were obtained from Thermo-Fisher (Cat No. C-001-5C). […] Quantitative PCR (qPCR) was performed using the TaqMan® Fast Advanced Master Mix (Applied Biosystems®; Cat No. 4444556) and specific TaqMan®-probes human gene primers DEFB4B (hBD2), DEFB103 (hBD3), HCAP18 and GAPDH to calculate the relative gene fold expression change per treatment. […]

# example entries with known answers
Query (compound): O=C(O)c1ccccc1O [Salicylic Acid, reference compound] ; field requested: hCAP18 gene expression
1.2 Fold-expression/untreated cells

Now this one: C/C(=C\CSCC(NC(=O)N(CC(=O)O)CC(=O)O)C(=O)O)CCCC(C)CCCC(C)CCCC(C)C (stereo not drawn) [Compound G]
0.6 Fold-expression/untreated cells

Others:
Query (compound): C/C(=C\CSC[C@H](NC(=O)N(C)CC(=O)O)C(=O)O)CCCC(C)CCCC(C)CCCC(C)C (stereo partly drawn) [Compound C] ; field requested: hCAP18 gene expression
0.5 Fold-expression/untreated cells

Now this one: O=C(O)CCCCCCCC(=O)O [Azelaic Acid, reference compound]
1.1 Fold-expression/untreated cells

Now this one: C/C(=C\CSC[C@H](NC(=O)N1CCC[C@H]1C(=O)O)C(=O)O)CCCC(C)CCCC(C)CCCC(C)C (stereo partly drawn) [Compound E]
0.7 Fold-expression/untreated cells

Now this one: O=C(OOC(=O)c1ccccc1)c1ccccc1 [Benzoyl Peroxide, reference compound]
2.8 Fold-expression/untreated cells
